Where these numbers come from: PubChem BioAssay

Assay: compound binding in COS7 lysate, probe aLAP1, primary screen, cell lysate, small-molecule microarray (AID 1124);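 also: lysate comes from COS7 cells expressing LAP1 and is applied at 0.3 µg/mL; score merges spot fluorescence near 667 nm with signal-to-noise over triplicate slides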
Conditions: probe aLAP1, fluorescence, higher = more signal
Using composite z-score as the sorting value, the categories are small value: < -0.002; mid value: ≥ -0.002 and < 0.4; large value: ≥ 0.4

COc1ccc(O[C@H]2C=C[C@@H](c3ccccc3)O[C@@H]2COC(=O)CCC(C)=NOC(C)CN2CCCCc3nc(C)c(C)cc32)cc1 (stereo partly drawn) = small value
CC(C)C[C@@H]1NC(=O)[C@H]2C[C@@H](C(=O)O)[C@@H](c3ccc(O)cc3)N2C1=O = small value
O=C(CS)NCCCCCNC(=O)[C@H]1C[C@H]2C(=O)N3CCC[C@H]3C(=O)N2[C@H]1c1cccc(OCCO)c1 = large value

Please classify: CCN1C(=O)[C@H]2[C@H]3[C@H](O)[C@H](O)CC(=NOCC=C(C)CCC=C(C)C)[C@H]3CC[C@H]2C1=O
large value

Form: Item = C=COC[C@H]1CN2[C@@H](CC[C@@H](C)[C@@H]2c2ccc(Br)cc2)C(=O)O1 ; Class = ?
large value

Form: Item = COC(=O)[C@@]1(Cc2ccc(F)cc2)[C@@H]2C(=CC(=O)[C@H]2CC(=O)C(=O)N(C)C)CN1C(=O)c1ccccc1 ; Class = ?
large value

Lab log: CO[C@@H]1COC(=O)[C@@H]2CCCN2C(=O)[C@@H](C)COC(=O)[C@H](COCc2ccccc2)NC(=O)CC=C[C@H]1C — assign composite z-score category
mid value

Hello team, could you let me know which band the following compound falls into: COc1ccc(OC[C@H]2Cc3c(-c4ccccc4)nc4c(c3CO2)CN(CCOc2ccccc2)CC4)cc1
mid value

---

System: Lefty1
Test: Lefty1 binders on small-molecule microarrays, primary screen, biochemical, small-molecule microarray, 635/667 nm fluorescence (AID 1139)
Conditions: small-molecule microarray binding, fluorescence 635/667; higher = more signal
Would you mind classing the entries by composite z-score? Ranges: group 1: < -0.4; group 2: ≥ -0.4 and < 0.1; group 3: ≥ 0.1

Take a look at these entries with their results.
CC(=O)OC[C@H]1O[C@@H](ON=C[C@@H](C)[C@H](OCc2ccccc2)C(C)C)[C@H](OC(C)=O)[C@@H](OC(C)=O)[C@@H]1OC(C)=O = group 2
COC(=O)[C@@]1(Cc2ccc(OC)cc2)[C@H]2c3cc(C(=O)N4CCCC4)n(Cc4cc(F)c(F)c(F)c4)c3C[C@H]2CN1C(=O)c1ccccc1 = group 1
COc1ccc(O[C@H]2C=C[C@@H](c3ccccc3)O[C@@H]2COC(=O)CCC(C)=NOC[C@@H](C)[C@H](OCc2ccccc2)C(C)C)cc1 = group 2

Pending molecule:
Assign a bin to O=C1[C@H]2[C@H]3[C@H](O)[C@H](O)CC(=NOCc4ccccc4)[C@H]3CC[C@H]2C(=O)N1C[C@@H]1CCCO1
group 3

---

Experiment: cell viability in Huh7 cells, primary screen, cytotoxicity control for HCV replication inhibitor project, CellTiter-Glo luminescence, basal, 48 h (AID 1143);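 also: Huh7 hepatoma cells carrying a hepatitis C replication reporter with no stimulus; test concentration not given here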
Details: Huh7 HCV replicon, higher = more signal, called active from +8 up or from −8 down
# z-score values compiled below
Give the figure only, with no unit attached.

Would you please look over these solved cases?
O=C1[C@H]2[C@H]3[C@H](O)[C@H](O)CC(=NO[C@@H]4O[C@H](CO)[C@@H](O)[C@H](O)[C@H]4O)[C@@H]3CC[C@H]2C(=O)N1Cc1ccc2c(c1)OCO2 = 0.548
Cc1cc2c(nc1C)CCCN2CC(C)ON=C1[C@H]2CCn3c(=O)n(-c4ccccc4)c(=O)n3[C@H]2[C@H](O)[C@@H]2O[C@H]12 (some centres not stated) = 0.357
CC(=O)OC[C@H]1O[C@H](CCON=C(C)CCN2CCc3nc(-c4ccccc4)c(-c4ccccc4)cc3C2)C=C[C@@H]1OC(C)=O = -1.04
O=C(NN=C1C[C@@H](O)[C@@H](O)[C@@H]2[C@@H]3C(=O)N(c4cccc(Oc5ccccc5)c4)C(=O)[C@@H]3CC[C@@H]12)OCc1ccccc1 = -0.033
C[C@H](c1ccccc1)N1C(=O)[C@H]2[C@H]3[C@H](O)[C@H](O)CC(=O)[C@@H]3CC[C@H]2C1=O = -1.37
CCCNC(=O)[C@@H]1c2ccccc2C(=O)N(Cc2ccccc2Cl)[C@H]1c1ccc(CO)cc1 = -1.44

Query molecule follows.
Quick check: z-score of NCCCCCNC(=O)[C@@H]1C[C@@H]2C(=O)N3CCC[C@H]3C(=O)N2[C@@H]1c1cccc(OCCO)c1 ?
0.902

---

Assay: A549 cell viability effects, profiling panel, calcein-AM fluorescence, 48 h, basal (AID 1162); also: test concentration not given here
Conditions: higher = more signal
endpointName: z-score
Give your answer as a number; write no unit.

COC(=O)[C@@]1(Cc2ccc(OC)cc2)[C@H]2c3cc(C(=O)N4CCCC4)n(Cc4cc(F)c(F)c(F)c4)c3C[C@H]2CN1C(=O)c1ccccc1 = -1.19

Name the recorded z-score for CO[C@@H]1COC(=O)CC=C[C@@H](C)[C@@H]2C=C[C@H](O)[C@@H](COC(=O)CCC[C@H]1C)O2 .
0.438

For the compound CCc1cccc(NC(=O)O[C@H]2[C@H](OC(=O)Nc3ccc4c(c3)OCO4)[C@@H](OC(=O)Nc3ccc4c(c3)OCO4)[C@@H](OC)O[C@@H]2CO)c1 , what z-score is on record?
-1.1

---

composite z-score: recorded values
Target: Torsin-1A (Homo sapiens) (UniProt O14656)
Sequence (O14656 whole entry, looked up): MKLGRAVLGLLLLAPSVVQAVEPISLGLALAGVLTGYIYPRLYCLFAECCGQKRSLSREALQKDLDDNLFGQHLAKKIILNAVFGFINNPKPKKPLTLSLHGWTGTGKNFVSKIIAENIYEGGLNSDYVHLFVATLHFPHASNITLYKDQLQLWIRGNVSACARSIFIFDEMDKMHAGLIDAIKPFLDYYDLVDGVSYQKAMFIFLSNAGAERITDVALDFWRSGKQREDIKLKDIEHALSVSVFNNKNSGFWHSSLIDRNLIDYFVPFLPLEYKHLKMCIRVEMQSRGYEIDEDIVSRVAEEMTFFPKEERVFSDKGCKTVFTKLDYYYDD
Assay: torsin A binders from cell lysate, primary screen, small-molecule microarray, wild-type, 635/667 nm (AID 1149)
Settings: COS7 hTOR1A-WT lysate, 635 nm fluorescence, higher = more signal

O=C1[C@H]2[C@H]3[C@H](O)[C@H](O)CC(=NOC[C@@H](O)COCc4ccco4)[C@H]3CC[C@H]2C(=O)N1C1CCCCC1 = 2.07
C#C[C@@H]1Oc2ccccc2S(=O)(=O)N2CCC[C@H]12 = -0.0705
CCOC(=O)CCN1C(=O)[C@H]2[C@H]3[C@H](O)[C@H](O)CC(=NNC(=O)OCc4ccc(OC)cc4)[C@@H]3CC[C@H]2C1=O = -0.0239
C=CCOC(=O)[C@H]1[C@@H]2C(=O)O[C@@H](c3ccccc3)[C@@H](c3ccccc3)N2[C@@H](c2ccc(OCCOC(=O)[C@H]3C[C@H]4C(=O)N5CCC[C@H]5C(=O)N4[C@H]3c3cccc(OCCO)c3)cc2)[C@]12C(=O)Nc1ccc(I)cc12 = 1.95
C[C@@H](c1ccccc1)N1C(=O)[C@H]2[C@H]3[C@H](O)[C@H](O)CC(=NNC(=O)OCc4ccccc4)[C@H]3CC[C@H]2C1=O = -0.184
Cc1ccc(C2CC=C(C(=O)O)CN2S(=O)(=O)c2ccc(C)cc2)cc1 (configuration not stated) = 0.427
Cc1ccc(S[C@]2(C(=O)O)CC(=O)N(Cc3ccccc3)[C@@H]2c2ccc(CO)cc2I)cc1 = -0.995
CCN1C(=O)[C@H]2[C@H]3[C@H](O)[C@H](O)CC(=NOC[C@@H](C)[C@H](OCc4ccccc4)C(C)C)[C@@H]3CC[C@H]2C1=O = 0.221

Recorded composite z-score for Cc1ccc(F)cc1S(=O)(=O)N[C@@H]1CCN(Cc2ccc(CC(C)C)cc2)C1 , please?
0.492

Can you look up the measured composite z-score of CC(=O)C[C@H](O)[C@@H](NC(=O)OC(C)(C)C)C(C)C for me?
-1.05

Name the reported composite z-score value associated with the compound Cc1cc2c(nc1C)CCCN2CC(C)ON=C1[C@H]2CCn3c(=O)n(-c4ccccc4)c(=O)n3[C@H]2[C@H](O)[C@@H]2O[C@H]12 (some centres not stated)
-0.0339

# query: composite z-score of entry COC(=O)CC=C[C@@H](C)[C@@H](C=NO[C@@H](C)c1cc(-c2c(C)cc(C)cc2C)no1)OC
-2.2

Can you share its composite z-score? I mean this compound: COC(=O)[C@@H]1CC[C@H](C)[C@@H](c2ccc(C)cc2)N1C(=O)c1ccc(C=NOC[C@@H](O)COCc2ccco2)cc1
-1.72

# lookup: composite z-score of O=C1C[C@@H](O)[C@@H](O)[C@@H]2[C@@H]3C(=O)N(c4cccc(Oc5ccccc5)c4)C(=O)[C@@H]3CC[C@@H]12
0.446

If you can, please state the reported composite z-score value of CCOC(=O)NN=C1C[C@@H](O)[C@@H](O)[C@@H]2[C@@H]3C(=O)N(C4CCCCC4)C(=O)[C@@H]3CC[C@@H]12 .
0.597

Field request: composite z-score | item: C=C(/C(=C/C[C@H](OC(C)=O)c1ccc(OCCO)cc1)c1cnc2ccccc2c1)C(C)C
0.55

Any idea what composite z-score was measured for COc1ccc(O[C@@H]2[C@H](O)CO[C@H]2C=CC#Cc2ccccc2)cc1 ?
0.23

Entry O=C(NN=C1C[C@@H](O)[C@@H](O)[C@@H]2[C@@H]3C(=O)N(c4ccc(F)cc4F)C(=O)[C@@H]3CC[C@@H]12)OCc1ccccc1 has what composite z-score?
0.871

Given CCN1C(=O)[C@H]2[C@H]3[C@H](O)C=CC(=O)[C@@H]3CC[C@H]2C1=O , state its recorded composite z-score.
0.0994

# query: composite z-score of entry c1ccc(C2NCCc3c2[nH]c2ccccc32)cc1 (configuration not stated)
0.586

What value of measured composite z-score is listed for O=C1[C@H]2[C@H]3[C@H](O)[C@H](O)CC(=NOCc4ccccc4)[C@@H]3CC[C@H]2C(=O)N1C1CCCCC1 ?
-0.0289

Need composite z-score of C#CCCCON=C1C[C@@H](O)[C@@H](O)[C@@H]2[C@@H]3C(=O)N(Cc4ccccc4)C(=O)[C@@H]3CC[C@H]12 , thanks.
0.289
